Read-out: Caspase-3 (Homo sapiens)
Protocol Details: LTEA_HepaRG_CASP3: Life Technologies and Expression Analysis (LTEA) Assay for cysteine-aspartic acid protease (CASP3) using HepaRG (AID 2283477)
Run Conditions: mRNA level, 48 h; actives raise or lower the signal
Active and inactive are the calls of the source. The calls were made as follows: active = hit-call score of the fitted dose curve at least 0.9, where 1 is the maximum; inactive = score below 0.9.
Outcome codes: Yes for active, No for inactive

Compound	Class Label
CC(COCC(C)OC(=O)c1ccccc1)OC(=O)c1ccccc1 (configuration not stated)	No
O=C1OC(c2ccc(O)cc2)(c2ccc(O)cc2)c2ccccc21	No
CS(=O)(=O)c1ccc([C@@H](C[C@H]2CCC(=O)C2)C(=O)Nc2cnccn2)cc1Cl	Yes
CC(=O)OCC(COC(C)=O)OC(C)=O	No
C=CCCCCCCCCCCCC	No
CC(C)COC(=O)CCCCC(=O)OCC(C)C	No
O=C1O[C@H]([C@H](O)CO)C(O)=C1O	No
OCC(CO)n1cnc(-c2ccc(F)cc2)c1-c1ccnc(Oc2ccccc2)n1	No
CCCCC(CC)CO (configuration not stated)	No
Cc1ccc(-c2cc(C(F)(F)F)nn2-c2ccc(S(N)(=O)=O)cc2)cc1	No
CC(C)c1cccc(C(C)C)c1	No
CCCCCCCCCCCCCCOS(=O)(=O)O	No
CCc1cc(C2=C(C(=O)O)N(c3ccccc3C(F)(F)F)S(=O)(=O)c3ccccc32)cc2c1OCO2	No
CC(C)(C)c1ccccc1	No
CC1=C(C)S(=O)(=O)CCS1(=O)=O	Yes
CCCCOC(=O)CCCCC(=O)OCCCC	No
COc1ccc(OC(F)(F)F)cc1CN[C@H]1CCCN[C@H]1c1ccccc1	Yes
CC(=O)O[C@]1(C(C)=O)CC[C@H]2[C@@H]3C=C(Cl)C4=CC(=O)[C@@H]5C[C@@H]5[C@]4(C)[C@H]3CC[C@@]21C	No
C/C=C/c1ccc(OC)cc1	No
CC(=O)S[C@H](C(=O)N[C@H]1Cc2ccccc2[C@H]2CCC[C@@H](C(=O)O)N2C1=O)C(C)C	No
CCCCCCCC(=O)OC	No
S=c1[nH]c2ccccc2s1	No
NC(=Nc1ccccc1)Nc1ccccc1	No
CCC(C)N(C)C(=O)c1cc2ccccc2c(-c2ccccc2Cl)n1 (configuration not stated)	No
CCCCc1nc2cccnc2n1Cc1ccc(-c2ccccc2-c2nnn[nH]2)cc1	No
CCCCC(CC)COC(=O)CCCCCCCC(=O)OCC(CC)CCCC (configuration not stated)	No
CCCCC(CC)COP(=O)(OCC(CC)CCCC)OCC(CC)CCCC (configuration not stated)	No
CC1(C)C(=O)NC(=O)N1CO	No
CCCCCCC(C=O)=Cc1ccccc1	No
CC(C)NCC(O)c1ccc(O)c(O)c1 (configuration not stated)	No
CCCC(=O)O	No
Nc1nc(=S)c2[nH]cnc2[nH]1	No

---

Read-out: CD40, CD40 (gene 958)
Protocol Details: BSK_LPS_CD40: BioMAP Diversity Plus: LPS Assay for CD40 Biomarker Activity (AID 2283076)
Run Conditions: primary human HUVEC with PBMC; actives raise or lower the signal
Experimental: BSK_LPS is a cell-based, multiplexed-readout assay that uses umbilical vein endothelium and peripheral blood mononuclear cells, a human vascular primary cell co-culture, with measurements taken at 24 hours after chemical dosing in a 96-well plate.BSK_LPS_CD40 is an assay component measured in the BSK_LPS assay. It measures CD40 antibody related to regulation of gene expression using ELISA technology.Data from the assay component BSK_LPS_CD40 was analyzed into 1 assay endpoint. […]
Activity calls are given as the source filed them. How the source made its calls: active means hit-call score of the fitted dose curve at least 0.9, where 1 is the maximum; inactive means score below 0.9.
Outcome codes: class 1 = active, class 0 = inactive

Compound	Class Label
O=C(O)CC(O)(CC(=O)O)C(=O)O	class 0
CC(=O)OC1CC(C)OC(C)O1 (stereo not drawn)	class 0
O=C(N[C@@H](c1ccccc1)[C@@H]1CCCCN1)c1cccc(C(F)(F)F)c1Cl	class 1
C/C=C/C=C/C(=O)O	class 0
O=C1CCCCC1	class 0
CCc1cc(C2=C(C(=O)O)N(c3ccccc3C(F)(F)F)S(=O)(=O)c3ccccc32)cc2c1OCO2	class 0
Cn1cnc2c1c(=O)[nH]c(=O)n2C	class 0
CN(C)C(=O)NC1(c2ccccc2)CCN(CCC[C@]2(c3ccc(Cl)c(Cl)c3)CCCN(C(=O)c3ccccc3)C2)CC1	class 0
O=NO	class 0
CC(=O)S[C@H](C(=O)N[C@H]1Cc2ccccc2[C@H]2CCC[C@@H](C(=O)O)N2C1=O)C(C)C	class 0
CCc1nc(N)nc(N)c1-c1ccc(Cl)cc1	class 0
CC(C)(O)c1ccc(CNC(=O)c2cccnc2Oc2ccc(F)cc2)cc1	class 0
CC(C)c1cccc(C(C)C)c1NC(=O)NS(=O)(=O)c1cc(C(C)(C)O)co1	class 0
CC(C)NCC(O)c1ccc(O)c(O)c1 (stereo not drawn)	class 0
NC(=Nc1ccccc1)Nc1ccccc1	class 0
CC(=O)O	class 0
COC(=O)CCCC(=O)OC	class 0
CCCCC(CC)COP(=O)(OCC(CC)CCCC)OCC(CC)CCCC (stereo not drawn)	class 0
OCC(CO)n1cnc(-c2ccc(F)cc2)c1-c1ccnc(Oc2ccccc2)n1	class 0
O=C1NC(=O)C(c2ccccc2)(c2ccccc2)N1	class 0
NC1CCCCC1	class 0
CS(=O)(=O)c1ccc([C@@H](C[C@H]2CCC(=O)C2)C(=O)Nc2cnccn2)cc1Cl	class 0
CCCCc1nc2cccnc2n1Cc1ccc(-c2ccccc2-c2nnn[nH]2)cc1	class 0
C=CCCCCCCCCCCCC	class 0
O=C(O)CN(CC(=O)O)CC(=O)O	class 0
CCOCCOCCO	class 0
O=C1OC(c2ccc(O)cc2)(c2ccc(O)cc2)c2ccccc21	class 1
Cc1occc(=O)c1O	class 0

---

Read-out: Alkaline Phosphatase, Placental (ALPP) gene, ALPP (gene 250)
Protocol Details: LTEA_HepaRG_ALPP: Life Technologies and Expression Analysis (LTEA) Assay for Alkaline Phosphatase, Placental (ALPP) gene using HepaRG (AID 2283468)
Run Conditions: mRNA level, 48 h; actives raise or lower the signal
Calls of active or inactive are those of the source. The calls were made as follows: active = hit-call score of the fitted dose curve at least 0.9, where 1 is the maximum; inactive = score below 0.9.
Outcome codes: active, inactive

Compound	Class Label
CCCCCCCCCCCCCCOS(=O)(=O)O	inactive
CC(C)OC(=O)C(C)(C)Oc1ccc(C(=O)c2ccc(Cl)cc2)cc1	inactive
Oc1ccccc1O	inactive
CC(C)c1cccc(C(C)C)c1NC(=O)NS(=O)(=O)c1cc(C(C)(C)O)co1	inactive
CCCC(=O)O	inactive
CSc1ccc(Oc2ccc(S(N)(=O)=O)cc2CN(C)C)cc1C	active
CCCCC(CC)CO (stereo not drawn)	inactive
Nc1nc(Cl)nc2c1ncn2[C@H]1C[C@H](O)[C@@H](CO)O1	inactive
O=Cc1ccccc1C=O	inactive
Oc1ccc(O)cc1	inactive
CC(=O)O	inactive
CC(C)COC(=O)CCCCC(=O)OCC(C)C	inactive
CCCCOC(=O)CCCCC(=O)OCCCC	inactive
c1ccc2occc2c1	inactive
CCc1nc(N)nc(N)c1-c1ccc(Cl)cc1	active
CCCCCCC(CCCCCCCCCCC(=O)OCC(COC(C)=O)OC(C)=O)OC(C)=O (stereo not drawn)	inactive
C#CC(O)C(CC)CCCC (stereo not drawn)	inactive
CN(C)CCCN(C)CCCN(C)C	inactive
Cc1c(C)c2c(c(C)c1O)CCC(C)(COc1ccc(CC3SC(=O)NC3=O)cc1)O2 (stereo not drawn)	active
CN(C)CCCN1c2ccccc2Sc2ccc(Cl)cc21	active
COc1ccc(OC(F)(F)F)cc1CN[C@H]1CCCN[C@H]1c1ccccc1	inactive
CCCCC(CC)COP(=O)(OCC(CC)CCCC)OCC(CC)CCCC (stereo not drawn)	inactive
CCCCCCC(C=O)=Cc1ccccc1	inactive

---

Read-out: Transforming growth factor beta 1 (TGFb1), TGFB1 (gene 7040)
Protocol Details: BSK_BE3C_TGFb1: BioMAP Diversity Plus: BE3C Assay for Transforming growth factor beta 1 (TGFb1) Biomarker Activity (AID 2283036;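 as to Outcome: TGF-b1 protein level measured by ELISA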)
Run Conditions: primary human bronchial epithelial cells; actives raise or lower the signal
The source made the active and inactive calls. How the source made its calls: active means hit-call score of the fitted dose curve at least 0.9, where 1 is the maximum; inactive means score below 0.9.
Outcome codes: T = active, F = inactive

Molecule	Class Label
CC(=O)CC(c1ccccc1)c1c(O)c2ccccc2oc1=O (centres undefined)	F
C/C=C/C=C/C(=O)O	F
CC(C)OC(=O)C(C)(C)Oc1ccc(C(=O)c2ccc(Cl)cc2)cc1	F
O=C1c2c(O)cccc2Cc2cccc(O)c21	F
CCCC[C@H]1CN(CC2CCOCC2)C(=O)OC12CCN(C1(C)CCN(C(=O)c3c(C)ncnc3C)CC1)CC2	F
CC(N)=O	F
Cc1c(C)c2c(c(C)c1O)CCC(C)(COc1ccc(CC3SC(=O)NC3=O)cc1)O2 (centres undefined)	T
CSc1ccc(Oc2ccc(S(N)(=O)=O)cc2CN(C)C)cc1C	F
CCCCCCCCCC[N+](C)(C)[O-]	F
CS(=O)(=O)c1ccc([C@@H](C[C@H]2CCC(=O)C2)C(=O)Nc2cnccn2)cc1Cl	F
OCC(CO)n1cnc(-c2ccc(F)cc2)c1-c1ccnc(Oc2ccccc2)n1	F
CC(=O)O	F
CCCC(=O)O	F
Nc1nc(Cl)nc2c1ncn2[C@H]1C[C@H](O)[C@@H](CO)O1	F
CCc1nc(N)nc(N)c1-c1ccc(Cl)cc1	F
O=[Si]=O	F
CCOCCOCCO	F
CCCCC(CC)COC(=O)CCCCCCCC(=O)OCC(CC)CCCC (centres undefined)	F
CC(C)c1cccc(C(C)C)c1	F
